# assay.method.text: Absorption and emission properties of HBR-binding PYP variants in presence of HBR
# Format: physicochemical
# recorded.conditions: variant with HBR
Measured brightness of individual entries

Worked examples follow.
Problem: Query: brightness; subject: Clone 2: fluorescent HBR-binding PYP variant, SEQ ID NO: 2, residues 94-101 WLIPTLPQ (protein, Functional derivative of SEQ ID NO: 48 - Clone 2) MEHVAFGSEDIENTLAKMDDGQLDGLAFGAIQLDGDGNILQYNAAEGDITGRDPKQVIGKNFFKDVAPGTDSPEFYGKFKEGVASGNLNTMFEWLIPTLPQPTKVKVHMKKALSGDSYWVFVKRV
Result: 2,800

Problem: And then Clone 4: fluorescent HBR-binding PYP variant, SEQ ID NO: 4, residues 94-101 WDIPTNPE (protein, Functional derivative of SEQ ID NO: 48 - Clone 4) MEHVAFGSEDIENTLAKMDDGQLDGLAFGAIQLDGDGNILQYNAAEGDITGRDPKQVIGKNFFKDVAPGTDSPEFYGKFKEGVASGNLNTMFEWDIPTNPEPTKVKVHMKKALSGDSYWVFVKRV , what is it?
Result: 2,500

Problem: Check Clone 6: fluorescent HBR-binding PYP variant, SEQ ID NO: 6, residues 94-101 WLIPTRNA (protein, Functional derivative of SEQ ID NO: 48 - Clone 6) MEHVAFGSEDIENTLAKMDDGQLDGLAFGAIQLDGDGNILQYNAAEGDITGRDPKQVIGKNFFKDVAPGTDSPEFYGKFKEGVASGNLNTMFEWLIPTRNAPTKVKVHMKKALSGDSYWVFVKRV too.
Result: 3,000

Continue with the next molecule.
Problem: Suppose we examine the molecule Clone 5: fluorescent HBR-binding PYP variant, SEQ ID NO: 5, residues 94-101 WRIPTECA (protein, Functional derivative of SEQ ID NO: 48 - Clone 5) MEHVAFGSEDIENTLAKMDDGQLDGLAFGAIQLDGDGNILQYNAAEGDITGRDPKQVIGKNFFKDVAPGTDSPEFYGKFKEGVASGNLNTMFEWRIPTECAPTKVKVHMKKALSGDSYWVFVKRV ; what brightness value has been reported?
Result: 2,800
